Values from patent US20200079833A1

Assayed Target: T1, GLP-1R (INS1e assay) (UniProt P32301 22-463, limits assumed)
T1 sequence (looked up): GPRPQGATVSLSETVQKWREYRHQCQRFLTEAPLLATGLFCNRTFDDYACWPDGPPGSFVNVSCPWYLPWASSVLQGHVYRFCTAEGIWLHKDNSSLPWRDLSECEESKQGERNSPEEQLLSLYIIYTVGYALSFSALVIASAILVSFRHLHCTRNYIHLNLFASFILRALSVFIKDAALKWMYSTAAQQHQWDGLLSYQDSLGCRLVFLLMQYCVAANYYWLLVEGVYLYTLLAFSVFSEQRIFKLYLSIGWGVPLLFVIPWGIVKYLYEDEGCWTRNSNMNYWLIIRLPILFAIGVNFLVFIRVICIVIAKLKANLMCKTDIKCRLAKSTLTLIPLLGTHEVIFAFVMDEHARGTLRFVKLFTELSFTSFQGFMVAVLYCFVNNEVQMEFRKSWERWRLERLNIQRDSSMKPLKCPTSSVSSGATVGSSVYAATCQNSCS
Method: cell-based or functional assay
Starred links: 1 amine or outer side, 2 acyl side, 3 side chain; linkers in the order of their positions; H or OH if unused. Non-standard residues stand in square brackets, D forms with d. Groups on a side chain read outwards from the residue. Primed or numbered codes have the meaning given here. No end group written: not given here. *: point of attachment. Dodecylbenzoate = dodecylbenzoyl lipid group; γGlu = O=C(O)[C@H](CCC(=O)[*:2])N[*:1]; Stearoyl = CCCCCCCCCCCCCCCCCC(=O)*; αMeF = C[C@](N)(Cc1ccccc1)C(=O)O; αMeK = C[C@](N)(CCCCN)C(=O)O; Lauroyl = CCCCCCCCCCCC(=O)*; αMeS = C[C@](N)(CO)C(=O)O; PEG2′ = not defined here; Aib = CC(C)(N)C(=O)O
Property Measured: INS1e assay EC50 GLP-1 R n2 (pM)
All answers are understood in pM, so give the number only.

As a guide, the following entries are already answered.
* H[Aib]EGS[αMeF]TSDV[αMeS]S[αMeF]LEGEAAK([PEG2′-Lauroyl])E[αMeF]IA[αMeF]VV[αMeK]GG-NH2 [SEQ ID NO 134] | 77.6
* H[Aib]EGS[αMeF]TSDV[αMeS]S[αMeF]LEK([PEG2′-PEG2′-γGlu-Stearoyl])EAA[αMeK]E[αMeF]IA[αMeF]VV[αMeK]GG-NH2 [SEQ ID NO 113] | 1260
* H[Aib]EGS[αMeF]TSDV[αMeS]S[αMeF]LEGEAA[αMeK]E[αMeF]IA[αMeF]VVK([PEG2′-PEG2′-PEG2′-Dodecylbenzoate])GG-NH2 [SEQ ID NO 181] | 114

# evaluate next
Given the entry H[Aib]EGS[αMeF]TSDV[αMeS]S[αMeF]LEGEAAAEFIK([PEG2′-PEG2′-γGlu-Stearoyl])WVVEGG-NH2 [SEQ ID NO 69] , report its measured INS1e assay EC50 GLP-1 R n2.
25000
